- System: phenyl-p-benzoquinone-induced writhing
- ASSAY NOTES: Phenylquinone Writhing (P.Q.W.)
- Type: in vivo, mouse
- EXPERIMENTAL CONTEXT: 0.5 h; mouse, po; phenyl-p-benzoquinone 2.5 mg/kg i.p. 30 minutes after compound; read-out: P.Q.W. ED50
Examples of molecules with documented ED50 follow.

>  <MOLECULE>
c1ccc2c(c1)CCc1cccc3c1N2[C@H]1CCN(C[C@H]2[C@@H]4CCCC[C@@H]42)C[C@H]31 (relative stereo)

>  <ED50, mg/kg>
14

$$$$
>  <MOLECULE>
c1ccc(CN2CC[C@@H]3[C@@H](C2)c2cccc4c2N3c2ccccc2CC4)cc1 (relative stereo)

>  <ED50, mg/kg>
28

$$$$
>  <MOLECULE>
c1ccc2c(c1)CCc1cccc3c1N2[C@@H]1CCN(CC2CC2)C[C@@H]31 (relative stereo)

>  <ED50, mg/kg>
2.3

$$$$
>  <MOLECULE>
CC(=O)Oc1ccccc1C(=O)O

>  <ED50, mg/kg>
94

$$$$

###

Examples of compounds with documented ED50 follow.
- System: phenyl-p-benzoquinone-induced writhing
- ASSAY NOTES: Phenylquinone Writhing (P.Q.W.)
- Format: in vivo, mouse
- EXPERIMENTAL CONTEXT: 0.5 h; mouse, po; phenyl-p-benzoquinone 2.5 mg/kg i.p. 30 minutes after compound; read-out: P.Q.W. ED50

>  <COMPOUND>
Cl.c1ccc2c(c1)CCc1cccc3c1N2[C@@H]1CCN(CC2CCCC2)C[C@@H]31 (relative stereo)

>  <TARGET ENTITY>
phenyl-p-benzoquinone-induced writhing

>  <UOM>
mg/kg

>  <ED50>
2

$$$$
>  <COMPOUND>
c1ccc(CCN2CC[C@H]3[C@H](C2)c2cccc4c2N3c2ccccc2CC4)cc1 (relative stereo)

>  <TARGET ENTITY>
phenyl-p-benzoquinone-induced writhing

>  <UOM>
mg/kg

>  <ED50>
4.7

$$$$
>  <COMPOUND>
CC(C)CN1CC[C@@H]2[C@@H](C1)c1cccc3c1N2c1ccccc1CC3 (relative stereo)

>  <TARGET ENTITY>
phenyl-p-benzoquinone-induced writhing

>  <UOM>
mg/kg

>  <ED50>
1.75

$$$$

###

- Tested on: locomotor activity
- ASSAY NOTES: Decreased Locomotor Activity (L.M.A.), mouse
- Format: in vivo
- EXPERIMENTAL CONTEXT: mouse, po; minimal effective dose; read-out: L.M.A. MED
RESULT TYPE: minimal effective dose (mg/kg)

>  <COMPOUND>
c1ccc2c(c1)CCc1cccc3c4c(n-2c13)CCN(CC1CC1)C4 [(cyclopropylmethyl) hexahydro]

>  <MEASURED RESULT>
10

$$$$
>  <COMPOUND>
c1ccc(CN2CC[C@@H]3[C@@H](C2)c2cccc4c2N3c2ccccc2CC4)cc1 (relative stereo) [Example 6]

>  <MEASURED RESULT>
2

$$$$
